Source listed as the RNAGym collection of RNA variant scans (doi:10.1126/science.aae0568).

B1: tRNA (parent)
chain: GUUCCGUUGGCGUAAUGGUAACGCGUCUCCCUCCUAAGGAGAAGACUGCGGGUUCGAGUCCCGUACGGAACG

variants of: B1; test: yeast fitness relative to wild type (ratio to wild type); higher = fitter; tRNA-Arg(CCU), competitive growth, 37 C, YPD
Variants at the floor of the assay were thinned out.
Overview of recorded yeast fitness for various variants
attribute_measured: yeast fitness

>>> recorded_result("U8C U28A")
0.901
>>> recorded_result("C5A G38A U47C")
0.599
>>> recorded_result("U3C C11U")
1.06
>>> recorded_result("C29G U47A G48A")
0.553
>>> recorded_result("U8C C27G")
0.647
>>> recorded_result("C4A C60G")
0.61
>>> recorded_result("C62A A70G")
0.674
>>> recorded_result("A14C C55U")
0.645
